Give apparent KD of MS2 coat protein for every item shown.
- Tested on: MS2 coat protein
- assayName: apparent KD of MS2 coat protein; designed switch direction (-1 OFF switch, 1 ON switch): -1; higher = weaker reporter binding
- runConditions: Eterna round: R95; input ligand: microRNA oligo, concentration not stated
The figure you give is taken to be in nM; do not add the unit.

**Query** Specify measured apparent KD of MS2 coat protein for AUAACAAGCUUUUUGUUCGUAGAACAUGAUGCUCGAGUCACAUGAGGAUCACCCAUGUCAACCAGAUAGAUAGUUGA [JR_SV3TOV2_Sub061] (puzzle: Sensor v3, turn-off variant 2) .
**Result** 162

**Query** Specify reported apparent KD of MS2 coat protein for the sequence shown: UAGGUGUGAGGAUAUGGUAAAGAUAAGAUGAUAAAAGAACUCCAGAAGGCACAUGAGGAUCACCCAUGUAGAUG [Mat - Exclusion 4 - Mod of JL - D34] (puzzle: Exclusion 4)
**Result** 22.8

**Query** Specify measured apparent KD of MS2 coat protein for UAAUAUAGUGUGAGGAUAUGCUGGUCCUUGGAUCAGCAGAAGGCACAUGAGGAUCACCCAUGUAGUUUAUUUUA [Mat - Exclusion 4 - JL Mod - D2] (puzzle: Brourd's mod of Exclusion 4) .
**Result** 28.2

**Query** Give me measured apparent KD of MS2 coat protein, please, for this sequence: CGUACUAACACGAAAGUGUUAGUACAAUAAGCUUGUGAAACAUGAGGAUCACCCAUGUCCUCAUAAGCUCGUCUUAU [salish99_TOv2_r3_007] (puzzle: Sensor v3, turn-off variant 2)
**Result** 967

**Query** Check the records and state apparent KD of MS2 coat protein for AGUAGGUCUACCUUGGUGGAUCUGCAUUUAUGCAAGUGUACAUGAGGAUCACCCAUGUCCUCAUUUGCUCGUCUUAU [JL turnoff v2 99.26] (puzzle: Sensor v3, turn-off variant 2)
**Result** 432

* * *

- Tested on: MS2 coat protein
- assayName: apparent KD of MS2 coat protein; designed switch direction (-1 OFF switch, 1 ON switch): -1; higher = weaker reporter binding
- runConditions: input ligand: none
Rule: apparent KD of MS2 coat protein under 40 nM gives not satisfied, otherwise satisfied.

**Query** Is apparent KD of MS2 coat protein at least 40 nM? Consider CCUAUGUGAGGAUAUCACUGGUCUUCUUUUAUUUUUUACAGUGAGAAGGCACAUGAGGAUCACCCAUGUCGGUG [Ex4 - 3 - 49] (Eterna round: R96, puzzle: Exclusion 4)
**Result** satisfied

**Query** Can GACCUUCCUGUAAGGAUAUCCAUGUAUCAAAGCAUGGAGAAGGUACAUGAGGAUCACCCAUGUCACCCGCGUUA (Eterna round: R97, puzzle: Brourd's mod of Exclusion 4) be said to have apparent KD of MS2 coat protein at or above 40 nM?
**Result** not satisfied

**Query** Check this sequence for apparent KD of MS2 coat protein at or above 40 nM: GAAAAGGCAGAGGAUAUUUCAGGUCAAAGCUGCAAAGAAGGCUGCACAUGAGGAUCACCCAUGUGGUCUUAAAA [Mod of Quesina 6 - Jieux - Exclusion 6] (Eterna round: R97, puzzle: Exclusion 6)
**Result** not satisfied

**Query** Form field: apparent KD of MS2 coat protein at least 40 nM? Entry: GUUAUGUCAGGAUAUGCUAAUGAUGAGUGCUCAGACAUGAUGCAGAAGGGACAUGAGGAUCACCCAUGUACUGA [EX4 #12] (Eterna round: R97, puzzle: Exclusion 4)
**Result** not satisfied

**Query** Check if apparent KD of MS2 coat protein >= 40 nM (inclusive). Item: AACCUGAGGCUUUGCUUUAGGUGUACAUGAGGAUCACCCAUGUAGGAUAUGGUAGGCUUUGCUUACCAGAAGGACAUUGGCGUU [JL ENG3 1.14] (Eterna round: R96, puzzle: Exclusion NG 3)
**Result** satisfied

**Query** Decide: apparent KD of MS2 coat protein of CGCUGUUGAGGAUAUGGGCGUGGUUACAUGAGGAUCACCCAUGUGGUGUCGCGCGUGGGUCCAGAAGGCGGCGGUG [-31.8, -28.5 kcal, 16% A] (Eterna round: R97, puzzle: Exclusion 5) >= 40 nM?
**Result** not satisfied

**Query** Please check the record UGAGCUUGAGGAUAUACAAGCUUGAGCUGAAAAGUUCGAGUACAUGAGGAUCACCCAUGUAGAAGGCGAGUUCG [-26.7, -25.2 kcal, A 31% 1bis and 1] (Eterna round: R97, puzzle: Exclusion 2) and state if its apparent KD of MS2 coat protein is at or above 40 nM.
**Result** not satisfied

**Query** Could you tell me if the measured apparent KD of MS2 coat protein of UAUAACCAAGGAUAUACAUGAGGAUCACCCAUGUAAUAUAAUAUAAUAUAAAUAAAAUGUAGAAGGUGGGAUAU (Eterna round: R97, puzzle: Exclusion 3) reaches 40 nM or more?
**Result** not satisfied

**Query** Item CUCUUACAUGAGGAUCACCCAUGUGAGGAUAUGCCCGGAGUAGCAGCAGAUCCUCUGGGCAGAAGGCACGUAGG [Eternabot (L1) Solution 98] (Eterna round: R97, puzzle: Exclusion 1) with apparent KD of MS2 coat protein of 40 nM or above?
**Result** satisfied

**Query** Check if apparent KD of MS2 coat protein >= 40 nM (inclusive). Item: UUAGUAUUGCAAGGAUAUGUUUAUGUUUAUUUUCCUCUUACAUGAGGAUCACCCAUGUUUAACUUACAGAAGGUGCUAUGAUUU [JR_ExcNG2_Sub032] (Eterna round: R96, puzzle: Exclusion NG 2)
**Result** satisfied
